System: MDA-MB-231
Assay: NCI tumour cell line growth inhibition, 48 h
The source made the active and inactive calls. Rule as the data show it: active = GI50 up to about 1.1 µM and inactive = higher.
Hi there, use one of these labels in your reply, thanks! active, inactive

Recorded test outcome, item C=CCc1c(Cl)nc(Cl)nc1Cl
active

Recorded test outcome, item CC(C)(C)C1CCC2c3c([nH]c4ccccc34)C3C(=O)N(c4cc(Cl)ccc4Cl)C(=O)C3C2C1 (stereo unspecified)
inactive

Recorded test outcome, item N#C/C(=C\NC(=S)Nc1ccc(S(=O)(=O)Nc2ccccn2)cc1)C(N)=O
inactive

---

# GI50 per record follows
Tested on: SNB-78
Assay: NCI tumour cell line growth inhibition, 48 h
Activity calls are given as the source filed them. Rule as the data show it: active = GI50 up to about 1.1 µM and inactive = higher.

Below are worked cases with known answers.
- COMPOUND: "C/C(=N\\N(c1ccccc1)c1ccccc1)c1c(O)cc(C)oc1=O"
  TESTED ON: "SNB-78"
  VALUE: "> 100 µM (inactive)"
- COMPOUND: "CC(C)Cc1ccc(C(C)/C=C2\\CCC(CN3CCCCC3)C2=O)cc1 (stereo unspecified)"
  TESTED ON: "SNB-78"
  VALUE: "5.74 µM (inactive)"
- COMPOUND: "N#CC(C(=O)/C(=N\\Nc1nc(S)nn1N)C(C#N)c1ccc(Cl)cc1)c1ccc(Cl)cc1 (stereo unspecified)"
  TESTED ON: "SNB-78"
  VALUE: "> 100 µM (inactive)"
- COMPOUND: "CCOC(=O)CCC(NC(=O)c1ccc(NC(OC)c2nc3cc(C(F)(F)F)ccc3nc2-c2ccccc2)cc1)C(=O)OCC (stereo unspecified)"
  TESTED ON: "SNB-78"
  VALUE: "19.1 µM (inactive)"
- COMPOUND: "CC(=O)NNc1nc(C)c(C(=O)NNC(=O)C(=O)Nc2ccc([N+](=O)[O-])cc2[N+](=O)[O-])s1"
  TESTED ON: "SNB-78"
  VALUE: "> 100 µM (inactive)"

Assign GI50 to the following record: Cc1cc(C(=O)NCCN(C)C)c2nc3ccccc3nc2c1
12.8 µM (inactive)

Assign GI50 to the following record: O=C1C(=O)N(c2cccc(C(F)(F)F)c2)C(=O)C(=O)C1c1nc2ccccc2s1
> 100 µM (inactive)

Assign GI50 to the following record: NC(=O)NC1C(C(N)=O)N(Cc2ccccc2)C(=O)N1Cc1ccccc1 (stereo unspecified)
> 100 µM (inactive)

Assign GI50 to the following record: O=C(O)[C@@H]1OCCOCCO[C@@H](C(=O)O)[C@H](C(=O)O)OCCOCCO[C@H]1C(=O)O
> 100 µM (inactive)

Assign GI50 to the following record: COc1ccc(/C=N\N2C(=O)Cc3ccccc32)cc1
91.2 µM (inactive)

---

# GI50 per record follows
Test system: SR
Assay: NCI tumour cell line growth inhibition, 48 h
The source made the active and inactive calls. Cut-off read from the data, not from the text of the source: active = GI50 up to about 1.1 µM and inactive = higher.

- COMPOUND: "COC(=O)c1ccc2c(c1)CC1(C2)Cc2cc3c(c(C(=O)OC)c2C1)CCCC3 (centres undefined)"
  OUTCOME MEASURE: "GI50"
  VALUE: "69.5 µM (inactive)"

Assign GI50 to the following record: COc1cc([C@H]2c3cc(O)c(OC)cc3C[C@]3(O)[C@@H]2CO[C@@H]3O)ccc1O
> 100 µM (inactive)

Assign GI50 to the following record: N#Cc1cc([N+](=O)[O-])ccc1NC(=O)C(=O)C(C(=O)/C=C/c1ccccc1)C1OC(=O)c2ccccc21 (centres undefined)
1.69 µM (inactive)

Assign GI50 to the following record: CCOC(=O)c1sc(=S)n(-c2ccc(Cl)cc2)c1-n1cc(-c2ccccc2)c(C#N)c1N
17.4 µM (inactive)

// provenance: ChEMBL document CHEMBL1201862
